Catalogue of compounds with associated half-life at 7.5 MBq
# Measurement Protocol: Half life in human plasma at 7.5 MBq measured up to 24 hrs at 37 degree C using 177Lu labeled compound by gamma-HPLC analysis
# Format: ADME, cell-free
*1 amine or outer side, *2 acyl side, *3 side chain or, on linkers, in order; H or OH if unused. Where a SMILES comes first, the peptide text is derived from it. [ ]: non-standard residue; d: D form. The star is where a group is joined. X2 = CCCC[C@@H](C(=O)[*:2])n1cc([C@H](Cc2c[nH]c3ccccc23)N[*:1])nn1; DOTA = O=C(O)CN1CCN(CC(=O)O)CCN(CC(=O)*)CCN(CC(=O)O)CC1; X3 = O=C([C@H](Cc1c[nH]c2ccccc12)n1cc(CN[*:1])nn1)[*:2]; Nle = CCCC[C@H](N)C(=O)O

Compound	half-life at 7.5 MBq, h
CCCC[C@@H](C(=O)N[C@@H](CC(=O)O)C(=O)N[C@@H](Cc1ccccc1)C(N)=O)n1cc([C@H](Cc2c[nH]c3ccccc23)NC(=O)CNC(=O)[C@H](Cc2ccc(O)cc2)NC(=O)[C@H](C)NC(=O)[C@@H](CCC(=O)O)NC(=O)CN2CCN(CC(=O)O)CCN(CC(=O)O)CCN(CC(=O)O)CC2)nn1 ({DOTA}-[dE]AYG[X2]DF-NH2)	350
CCCC[C@H](NC(=O)[C@H](Cc1c[nH]c2ccccc12)NC(=O)CNC(=O)C[C@H](Cc1ccc(O)cc1)NC(=O)[C@H](C)NC(=O)[C@@H](CCC(=O)O)NC(=O)CN1CCN(CC(=O)O)CCN(CC(=O)O)CCN(CC(=O)O)CC1)C(=O)N[C@@H](CC(=O)O)C(=O)N[C@@H](Cc1ccccc1)C(N)=O	4.7
CCCC[C@H](NC(=O)[C@H](Cc1c[nH]c2ccccc12)n1cc(CNC(=O)[C@H](Cc2ccc(O)cc2)NC(=O)[C@H](C)NC(=O)[C@@H](CCC(=O)O)NC(=O)CN2CCN(CC(=O)O)CCN(CC(=O)O)CCN(CC(=O)O)CC2)nn1)C(=O)N[C@@H](CC(=O)O)C(=O)N[C@@H](Cc1ccccc1)C(N)=O ({DOTA}-[dE]AY[X3][Nle]DF-NH2)	3.8
